# Tgt: TRAP1 enzyme (Homo sapiens)
# Sequence (Q12931 60-704): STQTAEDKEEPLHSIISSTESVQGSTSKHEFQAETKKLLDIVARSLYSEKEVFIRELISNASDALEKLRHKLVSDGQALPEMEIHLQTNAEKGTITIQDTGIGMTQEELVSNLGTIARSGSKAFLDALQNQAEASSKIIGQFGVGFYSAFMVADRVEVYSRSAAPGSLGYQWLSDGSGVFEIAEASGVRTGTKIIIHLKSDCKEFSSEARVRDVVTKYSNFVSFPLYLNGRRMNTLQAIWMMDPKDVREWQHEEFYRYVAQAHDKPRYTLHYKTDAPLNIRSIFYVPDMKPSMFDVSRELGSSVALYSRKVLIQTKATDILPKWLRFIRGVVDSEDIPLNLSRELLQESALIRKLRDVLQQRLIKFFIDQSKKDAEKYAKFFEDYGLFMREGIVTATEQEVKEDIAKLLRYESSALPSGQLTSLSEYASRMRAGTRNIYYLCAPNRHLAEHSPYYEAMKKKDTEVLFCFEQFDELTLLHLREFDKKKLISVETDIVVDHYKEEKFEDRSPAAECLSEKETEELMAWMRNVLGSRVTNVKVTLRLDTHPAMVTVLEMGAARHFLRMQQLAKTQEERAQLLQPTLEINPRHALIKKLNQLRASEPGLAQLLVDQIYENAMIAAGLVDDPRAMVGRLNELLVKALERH
# Protocol text: Malachite green phosphate assay of TRAP1 ATPase activity
# Format: biochemical
# Measurement conditions: TRAP1 ATPase activation, 150 nM Trap1, 20 μM ATP, geometric mean; read-out: Malachite Green Fluor DRC: GeoMean EC50
pEC50: −log10 of the molar value.
Assay readout: pEC50

Sample answers from the record:
>>> print(df.to_string())
                              record_smiles  assay_readout  reported_value
0  COc1ccc(NC(=O)c2ocnc2C)cc1S(=O)(=O)Nc1ccc(Br)cc1          pEC50    4.00 to 4.70
1  O=C(Nc1ccc(F)c(S(=O)(=O)Nc2c(F)cc(Cl)cc2F)c1)c1ncc(-c2ccccc2)o1          pEC50          > 5.00
2  COc1ccc(NC(=O)c2cnc(C(F)(F)F)[nH]2)cc1S(=O)(=O)Nc1ccc(-c2ccccc2)cc1          pEC50    4.00 to 4.70

We now examine a further compound.
Entry `CCc1ccc(NC(=O)c2cnc(C(F)(F)F)[nH]2)cc1S(=O)(=O)Nc1ccc(Br)cc1` has what pEC50?
> 5.00

Each recorded value in this set is attributed to patent US20230174523A1.
